Form field: Emax (one value per entry).
# system tested: M1 muscarinic receptor (Homo sapiens, UniProt P11229)
# Construct: expressed in transfected cells; host or cells: CHO (M1-CHO)
# Sequence (P11229 1-460): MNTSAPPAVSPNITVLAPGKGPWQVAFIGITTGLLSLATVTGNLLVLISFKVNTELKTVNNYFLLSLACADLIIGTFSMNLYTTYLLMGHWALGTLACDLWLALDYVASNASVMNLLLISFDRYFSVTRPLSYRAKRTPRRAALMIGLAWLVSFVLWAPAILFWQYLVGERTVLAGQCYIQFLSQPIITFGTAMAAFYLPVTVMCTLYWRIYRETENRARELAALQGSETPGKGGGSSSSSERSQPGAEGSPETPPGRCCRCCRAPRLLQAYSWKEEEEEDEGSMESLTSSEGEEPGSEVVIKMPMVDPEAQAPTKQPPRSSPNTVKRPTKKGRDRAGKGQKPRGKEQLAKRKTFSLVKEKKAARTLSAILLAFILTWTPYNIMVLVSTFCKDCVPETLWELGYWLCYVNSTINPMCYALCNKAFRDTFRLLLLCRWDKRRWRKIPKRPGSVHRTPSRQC
# measurement notes: Functional mobilization of intracellular calcium (FLIPR) in M1-CHO cells
# Assay type: cell-based
# applied conditions: Table 4; 100% efficacy is the maximum response obtained with the Carbachol control
observable: Emax

| molecule | reading |
| --- | --- |
| CC(=O)NC1CCC2(CCN(CC3CCOCC3)CC2)c2ccccc21 (centres unmarked) | > 100% |
| CN(C)C(=O)N1CC2(CCN(C3CCN(C(=O)c4ccco4)CC3)CC2)c2cc(F)ccc21 | 25 to 100% |
| CCOC(=O)N1CCC(N2CCC3(CC2)CN(CC(=O)N(C)C)c2ccc(F)cc23)CC1 | 25 to 100% |
| CC(=O)N[C@H]1CC2(CCN(C3CCC(C(C)C)CC3)CC2)c2ccccc21 (some centres unmarked) | < 25% |
| CC(=O)NC1CCC2(CCN(CCC3CCN(S(C)(=O)=O)CC3)CC2)c2ccccc21 (centres unmarked) | 25 to 100% |
| CCOC(=O)N1CCC(CN2CCC3(CC2)CN(C(C)=O)c2c(F)cc(F)cc23)CC1 | 25 to 100% |
| CCOC(=O)N1CCC(N2CCC3(CC2)CN(C(C)=O)c2c(C(F)(F)F)cccc23)CC1 | < 25% |
| O=C(N[C@H]1CC2(CCN(CC3CCCCC3)CC2)c2ccccc21)N1CCCC1 | < 25% |

Source of measurements: patent US7786141B2
